# maps each entry to its z-score
test: budding yeast growth changes without added modifier – OD600, strain BY4716, 24 h, basal condition, primary screen (AID 1173); conditions: S. cerevisiae BY4716 growth, OD600, 24 h; higher = more signal, called active from +8 up or from −8 down
Hey, just send me the number, nothing else.

Solved cases (5 shown):
>  <molecule>
CCN(CC)c1ccc(N2CC=CC34O[C@@H]5/C=C\CCCOC(=O)C5[C@H]3C(=O)N(CCCCCCO)[C@@H]4C2=O)cc1 (stereo partly specified)

>  <z-score>
-1.14

$$$$
>  <molecule>
CC1C=C(CCCO)C=C(C(=O)OCCS(C)(=O)=O)C(C(=O)OCCS(C)(=O)=O)=CN1Cc1cccc(OC(F)(F)F)c1 (stereo unspecified)

>  <z-score>
-3.46

$$$$
>  <molecule>
COCCOC(=O)N1C(=O)[C@@]2(c3cc(C#CCCO)ccc31)[C@H](C(=O)N1CCc3cc(OC)c(OC)cc3C1)[C@H]1C(=O)O[C@H](c3ccccc3)[C@H](c3ccccc3)N1[C@@H]2c1ccc(OCCO)cc1

>  <z-score>
0.543

$$$$
>  <molecule>
CCOC(=O)C1=CC[C@@H](c2ccc(N(CC)CC)cc2)N(S(=O)(=O)c2ccc(C)cc2)[C@H]1c1ccc([N+](=O)[O-])cc1

>  <z-score>
-0.0341

$$$$
>  <molecule>
O=C1O[C@H](c2ccccc2)[C@H](c2ccccc2)N2[C@H]1[C@@H](C(=O)N1CCN(c3ncccn3)CC1)[C@]1(C(=O)Nc3ccc(C#CCCO)cc31)[C@H]2c1ccc(OCCO)cc1

>  <z-score>
1.01

$$$$

// next entry
So for `C[N+](C)(C)CCCC[C@@H]1NC(=O)[C@H]2C[C@@H](C(=O)NCCCCCCN)[C@@H](c3cccc(OCCO)c3)N2C1=O` , the logged z-score turned out to be -0.707
